Experiment: Solubility in KPi buffer by NMR with TMSP internal standard
Details: 50 mM KPi aqueous buffer, pH 7, aqueous with cosolvent or surfactant or cyclodextrin, kinetic from dmso stock
readout: solubility

Challenge: Return reported solubility; argument: COC(=O)c1ccnc(S(C)(=O)=O)n1 [4k]
Response given: ≥ 2000 µM

Challenge: What value of measured solubility is listed for O=S(=O)(CC(F)(F)F)c1ncccn1 [5e] ?
Response given: ≥ 2000 µM

Challenge: # lookup: solubility of Cc1cc(C)nc(S(C)(=O)=O)n1 [4a]
Response given: ≥ 2000 µM
